Stoke shift for assorted compounds
test: Measurement of optical properties of the agents (absorbance and fluorescence emission); type: physicochemical; details: in DMSO; nerve labeling agents
Quick reminder: number only, in nm, skip the unit.

{"Compound structure": "COc1cc(/C=C/C2=CC(=C(C#N)C#N)C=C(C)O2)ccc1NCc1ccc(N)cc1", "Stoke shift, nm": 150}
{"Compound structure": "COc1cc(/C=C/C2=CC(=C(C#N)C#N)C=C(C)O2)ccc1N", "Stoke shift, nm": 153}
{"Compound structure": "CC1=CC(=C(C#N)C#N)C=C(/C=C/c2ccc(NCCO)cc2)O1", "Stoke shift, nm": 134}
{"Compound structure": "CC1=CC(=C(C#N)C#N)C=C(/C=C/c2ccc(N)cc2)O1", "Stoke shift, nm": 129}

Next item in the queue.
The recorded Stoke shift for CC1=CC(=C(C#N)C#N)C=C(/C=C/c2ccc(N(CCO)CCO)cc2)O1 is 132
